Values were extracted from patent US9663523B2.

- test-target: BRD4(1) (amino acids 44-168) (Homo sapiens (Human), UniProt O60885)
- protocol-description: BRD4 binding strength, TR-FRET (HTRF) assay of BRD4(1) / acetylated histone H4 peptide interaction
- condition-label: inhibition of BRD4(1)/Ac-H4 peptide interaction
pIC50: −log10 of the molar value.
Note to self: values exactly at 7 are 1.0. So pIC50 at or above 7 is 1.0, below is 0.0.

Use the examples below as a reference point.
CC(=O)NNC(=O)CC1C=C(c2ccc(Cl)cc2)c2ccccc2-n2c(C)nnc21 (stereo in doubt) [Example 40]: 1.0
Cc1nnc2n1-c1ccccc1C(c1ccc(Cl)cc1)=C[C@H]2CC(=O)N1CCS(=O)(=O)C1 [Example 31]: 0.0
Cc1nnc2n1-c1ccccc1C(c1ccc(Cl)cc1)=CC2Cc1nnc(-c2cccnc2)o1 (stereo in doubt) [Example 45]: 1.0

Kindly consider the entry below.
Q: Reported pIC50 at or above 7? Cc1nnc2n1-c1ccccc1C(c1ccc(Cl)cc1)=CC2CC(=O)N1CC2(COC2)C1 (stereo not shown) [Example 3]
Result: 0.0

====

- test-target: BRD4(1) (amino acids 44-168) (Homo sapiens (Human))
- protocol-description: BRD4 binding strength, TR-FRET (HTRF) assay of BRD4(1) / acetylated histone H4 peptide interaction
- condition-label: inhibition of BRD4(1)/Ac-H4 peptide interaction
observed-property: IC50 (nM)
Field format: number, assumed nM, no unit text.

Cc1nnc2n1-c1ccccc1C(c1ccc(Cl)cc1)=CC2CC(=O)N1CCS(=O)(=O)C1 (stereo not shown): 80
Cc1nnc2n1-c1ccc(OC(F)(F)F)cc1C(c1ccc(Cl)cc1)=C[C@H]2CC(=O)N1CCN2C(=O)CCC2C1 (stereo partly shown): 180
COc1ccc2c(c1)C(c1ccc(Cl)cc1)=CC(Cc1nnc(C)o1)c1nnc(C)n1-2 (stereo not shown): 50

From here, focus on the item given below.
Q: Would you kindly share the measured IC50 for Cc1nnc2n1-c1ccccc1C(c1ccc(Cl)cc1)=CC2CC(=O)N1C2CCC1CC2 (stereo not shown) [Example 5] ?
Result: 1400

====

- Test system: MOLP-8 cells
- protocol-description: Cell proliferation (alamarBlue), MOLP-8
- Format: cell-based
- condition-label: Homo sapiens, multiple myeloma cell line, 120 hours incubation
Each entry below carries its reported log10 IC50.
For clarity, the numbers are log10 values of IC50 expressed in nM.

Cc1nnc2n1-c1ccc(OC(F)(F)F)cc1C(c1ccc(Cl)cc1)=CC2CC(=O)OC(C)(C)C (stereo in doubt) [Example 50]: 3.02
Cc1nnc2n1-c1ccccc1C(c1ccc(Cl)cc1)=CC2Cc1nnc(-c2cccnc2)o1 (stereo not drawn): 2.34
Cc1nnc(CC2C=C(c3ccc(Cl)cc3)c3cc(OC(F)(F)F)ccc3-n3c(C)nnc32)o1 (stereo not drawn): 2.56
Cc1nnc(CC2C=C(c3ccc(Cl)cc3)c3ccccc3-n3c(C)nnc32)o1 (stereo in doubt): 1.65
Cc1nnc2n1-c1ccc(OC(F)(F)F)cc1C(c1ccc(Cl)cc1)=C[C@H]2CC(=O)N1CC2(COC2)C1: 2.56
Cc1nnc2n1-c1ccccc1C(c1ccc(Cl)cc1)=CC2CC(=O)N1CCC(=O)C1 (stereo not drawn): 2.58
CCNC(=O)C[C@@H]1C=C(c2ccc(Cl)cc2)c2cc(OC(F)(F)F)ccc2-n2c(C)nnc21: 2.41
Cc1nnc(C[C@@H]2C=C(c3ccc(Cl)cc3)c3cc(OC(F)(F)F)ccc3-n3c(C)nnc32)o1: 2.23

Q: Would you kindly share the measured log10 IC50 for Cc1noc(C[C@H]2C=C(c3ccc(Cl)cc3)c3ccccc3-n3c(C)nnc32)n1 ?
Result: 2.11

Q: Would you kindly share the measured log10 IC50 for Cc1nnc2n1-c1ccccc1C(c1ccc(Cl)cc1)=CC2CC(=O)N1CCC2(CCCC2)CC1 (stereo not drawn) ?
Result: 3.80

Q: Would you kindly share the measured log10 IC50 for Cc1nnc(CC2C=C(c3ccc(Cl)cc3)c3ccccc3-n3c(C)nnc32)s1 (stereo in doubt) [Example 42] ?
Result: 2.04

Q: Would you kindly share the measured log10 IC50 for Cc1nnc2n1-c1ccccc1C(c1ccc(Cl)cc1)=CC2CC(=O)OC(C)(C)C (stereo not drawn) ?
Result: 3.68

====

- Tested on: MOLP-8 cells
- protocol-description: Cell proliferation (alamarBlue), MOLP-8
- Format: cell-based
- condition-label: Homo sapiens, multiple myeloma cell line, 120 hours incubation
Each entry below carries its reported pIC50.
Scale explanation: pIC50 corresponds to minus log10 of a concentration expressed in moles per litre.

Q: Would you kindly share the measured pIC50 for CC(=O)NNC(=O)CC1C=C(c2ccc(Cl)cc2)c2ccccc2-n2c(C)nnc21 (stereo in doubt) [Example 40] ?
Result: 7.10

Q: Would you kindly share the measured pIC50 for Cc1nnc2n1-c1ccccc1C(c1ccc(Cl)cc1)=C[C@H]2CC(=O)N1CCC2(CCCC2)CC1 [Example 29] ?
Result: 5.78

Q: Would you kindly share the measured pIC50 for Cc1nnc2n1-c1ccc(OC(F)(F)F)cc1C(c1ccc(Cl)cc1)=C[C@H]2CC(=O)NCCN1CCOCC1 [Example 53] ?
Result: 6.96

Q: Would you kindly share the measured pIC50 for Cc1nnc2n1-c1ccccc1C(c1ccc(Cl)cc1)=C[C@H]2CC(=O)N1CC2(CCS2(=O)=O)C1 [Example 19] ?
Result: 6.72

Q: Would you kindly share the measured pIC50 for Cc1nnc2n1-c1ccccc1C(c1ccc(Cl)cc1)=CC2Cc1nnc(C2CC2)o1 (stereo not drawn) [Example 43] ?
Result: 6.68

Q: Would you kindly share the measured pIC50 for Cc1nnc2n1-c1ccc(OC(F)(F)F)cc1C(c1ccc(Cl)cc1)=CC2CC(=O)OC(C)(C)C (stereo not drawn) [Example 49] ?
Result: 5.72

====

- test-target: BRD4(1) (amino acids 44-168) (Homo sapiens (Human), UniProt O60885)
- protocol-description: BRD4 binding strength, TR-FRET (HTRF) assay of BRD4(1) / acetylated histone H4 peptide interaction
- condition-label: inhibition of BRD4(1)/Ac-H4 peptide interaction
Each entry below carries its reported IC50.
Field format: number, assumed nM, no unit text.

Worked cases, IC50 given:
Cc1nnc2n1-c1ccccc1C(c1ccc(Cl)cc1)=C[C@H]2Cc1nnc(COCc2ccccc2)o1: 270
Cc1nnc2n1-c1ccccc1C(c1ccc(Cl)cc1)=C[C@H]2CC(=O)N1CCC(=O)C1: 110
Cc1nnc2n1-c1ccccc1C(c1ccc(Cl)cc1)=CC2CC(=O)N1C2CCC1CC2 (stereo in doubt) [Example 6]: 600

Q: Would you kindly share the measured IC50 for Cc1nnc2n1-c1ccccc1C(c1ccc(Cl)cc1)=C[C@H]2CC(=O)N1CCC2(CCCC2)CC1 ?
Result: 1800

====

- test-target: BRD4(1) (amino acids 44-168) (Homo sapiens (Human))
- protocol-description: BRD4 binding strength, TR-FRET (HTRF) assay of BRD4(1) / acetylated histone H4 peptide interaction
- condition-label: inhibition of BRD4(1)/Ac-H4 peptide interaction
observed-property: IC50 (µM)
Field format: number, assumed µM, no unit text.

Cc1nnc2n1-c1ccccc1C(c1ccc(Cl)cc1)=CC2CC(=O)N1CCOCC1 (stereo not shown) [Example 14]: 0.31

Q: // lookup IC50 | system=BRD4(1) (amino acids 44-168) (Homo sapiens (Human)) | key= Cc1nnc2n1-c1ccccc1C(c1ccc(Cl)cc1)=CC2CC(=O)N1CC2CCC(C1)O2 (stereo not shown) [Example 32]
Result: 0.39

Q: // lookup IC50 | system=BRD4(1) (amino acids 44-168) (Homo sapiens (Human)) | key= CCOC(=O)CC1C=C(c2ccc(Cl)cc2)c2ccccc2-n2c(C)nnc21 (stereo in doubt) [Example 2]
Result: 0.03

Q: // lookup IC50 | system=BRD4(1) (amino acids 44-168) (Homo sapiens (Human)) | key= Cc1nnc2n1-c1ccccc1C(c1ccc(Cl)cc1)=CC2CC(=O)Nc1ccc2c(c1)CC(=O)N2 (stereo in doubt) [Example 21]
Result: 0.08

====

- test-target: BRD4(1) (amino acids 44-168) (Homo sapiens (Human))
- protocol-description: BRD4 binding strength, TR-FRET (HTRF) assay of BRD4(1) / acetylated histone H4 peptide interaction
- condition-label: inhibition of BRD4(1)/Ac-H4 peptide interaction
observed-property: pIC50
Scale explanation: pIC50 corresponds to minus log10 of a concentration expressed in moles per litre.

Worked cases, pIC50 given:
Cc1nnc(CC2C=C(c3ccc(Cl)cc3)c3ccccc3-n3c(C)nnc32)s1 (stereo not shown) [Example 41]: 7.00
Cc1nnc(CC2C=C(c3ccc(Cl)cc3)c3cc(OC(F)(F)F)ccc3-n3c(C)nnc32)o1 (stereo not shown): 6.89
Cc1nnc2n1-c1ccccc1C(c1ccc(Cl)cc1)=CC2CC(=O)N1CCC2(CCCC2)CC1 (stereo not shown): 5.85
CCNC(=O)C[C@@H]1C=C(c2ccc(Cl)cc2)c2cc(OC(F)(F)F)ccc2-n2c(C)nnc21: 6.72
Cc1nnc(CC2C=C(c3ccc(Cl)cc3)c3cc(-c4c(C)noc4C)ccc3-n3c(C)nnc32)o1 (stereo not shown): 6.47
Cc1nnc(C[C@@H]2C=C(c3ccc(Cl)cc3)c3cc(OC(F)(F)F)ccc3-n3c(C)nnc32)o1: 7.05
Cc1nnc(CC2C=C(c3ccc(Cl)cc3)c3ccccc3-n3c(C)nnc32)o1 (stereo in doubt) [Example 38]: 7.70
Cc1noc(C[C@H]2C=C(c3ccc(Cl)cc3)c3ccccc3-n3c(C)nnc32)n1: 7.52
Cc1nnc2n1-c1ccccc1C(c1ccc(Cl)cc1)=CC2CC(=O)N1CCC(=O)C1 (stereo not shown): 7.40
Cc1nnc2n1-c1ccc(OC(F)(F)F)cc1C(c1ccc(Cl)cc1)=CC2CC(=O)OC(C)(C)C (stereo in doubt): 6.10

Q: Would you kindly share the measured pIC50 for Cc1nnc2n1-c1ccc(OC(F)(F)F)cc1C(c1ccc(Cl)cc1)=C[C@H]2CC(=O)NCCN1CCOCC1 ?
Result: 7.10
